# Measurement target: Tyrosine-protein phosphatase non-receptor type 22 (Homo sapiens) (UniProt Q9Y2R2)
# Sequence (Q9Y2R2 whole entry, looked up): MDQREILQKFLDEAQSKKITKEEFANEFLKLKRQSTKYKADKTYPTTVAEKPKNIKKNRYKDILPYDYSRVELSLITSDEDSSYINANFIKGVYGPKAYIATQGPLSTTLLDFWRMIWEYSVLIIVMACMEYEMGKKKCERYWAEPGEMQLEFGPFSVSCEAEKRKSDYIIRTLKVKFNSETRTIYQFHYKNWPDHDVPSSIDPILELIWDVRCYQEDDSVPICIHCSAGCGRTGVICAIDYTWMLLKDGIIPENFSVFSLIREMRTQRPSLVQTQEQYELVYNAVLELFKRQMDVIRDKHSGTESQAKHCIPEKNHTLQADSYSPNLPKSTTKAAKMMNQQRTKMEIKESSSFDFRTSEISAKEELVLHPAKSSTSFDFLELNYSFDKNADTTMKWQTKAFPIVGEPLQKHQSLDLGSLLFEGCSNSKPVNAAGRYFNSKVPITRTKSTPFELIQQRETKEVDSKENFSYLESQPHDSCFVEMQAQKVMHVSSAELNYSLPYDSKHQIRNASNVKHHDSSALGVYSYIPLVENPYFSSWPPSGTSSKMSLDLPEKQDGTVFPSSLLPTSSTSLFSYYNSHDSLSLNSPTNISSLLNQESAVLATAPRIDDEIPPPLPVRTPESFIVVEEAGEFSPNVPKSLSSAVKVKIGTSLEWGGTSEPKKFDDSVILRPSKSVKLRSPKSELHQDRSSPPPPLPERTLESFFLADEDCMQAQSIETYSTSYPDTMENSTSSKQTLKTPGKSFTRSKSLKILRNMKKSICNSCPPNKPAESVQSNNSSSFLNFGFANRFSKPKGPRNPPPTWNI
# Method: PTPN22 lymphoid phosphatase activity blockers – biochemical, fluorescence intensity, uHTS (AID 1779)
# Details: recombinant LYP phosphatase, at 11.5 µM
About 160 (0.055%) of roughly 290,000 compounds were called active. Cut-off read from the data, not from the text of the source: active = inhibition above about 50%; inactive = the rest. Only a selection was taken, and actives are over-represented in it overall.
Outcomes: active, inactive

Compound: COc1ccc(C(C(=O)NC2CCCC2)N2CCc3ccccc32)cc1 (stereo unspecified)
Class name: active
//
Compound: COCCNC(=O)c1c(CSc2ccccc2)noc1C(=O)NCc1ccccc1
Class name: inactive
//
Compound: NC(=O)c1nn(-c2ccccc2)nc1NC(=O)CSc1nnnn1-c1ccc(Cl)cc1
Class name: inactive
//
Compound: O=C(NC1CCCCC1)C(c1ccccc1)N1CCc2ccccc21 (stereo unspecified)
Class name: inactive
//
Compound: O=C(c1ccc2c(c1)OCO2)N1CCC2(CC1)Oc1ccc(Cl)cc1C(=O)C21CC(c2ccccc2)=NO1 (stereo unspecified)
Class name: inactive
//
Compound: Cc1ccc(C(C(=O)NC2CCCC2)N2CCc3ccccc32)cc1 (stereo unspecified)
Class name: inactive
//
Compound: CCN(CCCNC(=O)C1CCN(S(=O)(=O)c2cccc3nonc23)CC1)Cc1ccccc1
Class name: inactive
//
Compound: c1ccc2c(CN3CCOCC3)csc2c1
Class name: inactive
//
Compound: Cc1cccc(NC(=O)CN2CCOCC2)c1C
Class name: inactive
//
Compound: Cc1nn(C)c(C(=O)N/N=C/c2cccnc2)c1Cl
Class name: inactive
//
Compound: Cc1nn(C(C)C(=O)NCCCN2CCCCCC2)c(=O)c2c1sc1ccccc12 (stereo unspecified)
Class name: inactive

Values were extracted from PubChem BioAssay AID1779.
